Target: rat α4β2 nAChR subtype (Rattus norvegicus, UniProt P09483+P12390)
Construct: The cerebral cortex was removed and placed in 20 volumes (weight:volume) of ice-cold preparative buffer
Sequence (P09483 31-630): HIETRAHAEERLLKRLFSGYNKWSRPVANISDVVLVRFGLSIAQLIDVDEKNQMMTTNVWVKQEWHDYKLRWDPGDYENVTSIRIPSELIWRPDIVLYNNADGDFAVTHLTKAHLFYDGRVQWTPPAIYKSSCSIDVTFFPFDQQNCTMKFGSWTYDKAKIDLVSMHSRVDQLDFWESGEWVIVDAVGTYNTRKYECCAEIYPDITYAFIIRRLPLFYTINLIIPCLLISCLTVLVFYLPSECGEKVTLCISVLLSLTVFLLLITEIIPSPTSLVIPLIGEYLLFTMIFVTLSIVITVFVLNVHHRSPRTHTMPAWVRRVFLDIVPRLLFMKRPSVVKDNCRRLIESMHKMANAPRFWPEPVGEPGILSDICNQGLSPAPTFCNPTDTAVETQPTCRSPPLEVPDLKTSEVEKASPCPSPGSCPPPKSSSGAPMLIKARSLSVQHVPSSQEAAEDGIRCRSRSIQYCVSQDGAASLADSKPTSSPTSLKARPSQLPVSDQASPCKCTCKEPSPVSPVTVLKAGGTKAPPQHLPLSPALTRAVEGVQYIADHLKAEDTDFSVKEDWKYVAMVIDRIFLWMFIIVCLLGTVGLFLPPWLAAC
Sequence (P12390 25-500): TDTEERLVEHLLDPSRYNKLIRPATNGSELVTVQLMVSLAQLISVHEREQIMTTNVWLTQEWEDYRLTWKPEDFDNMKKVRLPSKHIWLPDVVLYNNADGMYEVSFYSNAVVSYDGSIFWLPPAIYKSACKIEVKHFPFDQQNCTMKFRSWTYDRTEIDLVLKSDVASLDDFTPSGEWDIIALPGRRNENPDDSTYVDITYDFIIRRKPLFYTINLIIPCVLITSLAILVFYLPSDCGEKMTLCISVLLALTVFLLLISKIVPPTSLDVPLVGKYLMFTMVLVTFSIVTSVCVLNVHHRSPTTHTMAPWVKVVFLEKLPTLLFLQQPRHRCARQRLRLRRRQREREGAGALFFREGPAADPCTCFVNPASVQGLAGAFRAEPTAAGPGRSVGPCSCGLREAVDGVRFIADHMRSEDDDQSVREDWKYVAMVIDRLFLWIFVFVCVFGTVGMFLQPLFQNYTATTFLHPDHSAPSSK
Assay: Radioligand binding, [3H]nicotine, rat cortex membranes
Settings: [3H]nicotine 5 nM
Measure: Ki (nM)
One number for each entry, in nM.

Some molecules with known Ki results, for comparison:
{"Molecule": "N#CC1(C(=O)N2CC3CNCC3C2)CC1 (centres unmarked)", "Measure": "Ki", "Endpoint value": 572}
{"Molecule": "NC(=O)CC(=O)N1CC2CNCC2C1 (centres unmarked)", "Measure": "Ki", "Endpoint value": 1390}
{"Molecule": "CC(C)(F)C(=O)N1CC2CNCC2C1 (centres unmarked)", "Measure": "Ki", "Endpoint value": 12}
{"Molecule": "CCCC(=O)N1CC2CNCC(C2)C1", "Measure": "Ki", "Endpoint value": 8.1}
{"Molecule": "O=C(C1=CCCC1)N1CC2CNCC2C1 (centres unmarked)", "Measure": "Ki", "Endpoint value": 116}
{"Molecule": "O=C(C1CC=CCC1)N1CC2CNCC2C1 (centres unmarked)", "Measure": "Ki", "Endpoint value": 236}
{"Molecule": "CC(F)(F)C(=O)N1CC2CNCC(C2)C1", "Measure": "Ki", "Endpoint value": 14.6}
{"Molecule": "COCCC(=O)N1CC2CNCC2C1 (centres unmarked)", "Measure": "Ki", "Endpoint value": 305}

Go through the items and report each one's Ki.
1. O=C(C1CC(F)C1)N1CC2CNCC(C2)C1 (centres unmarked)
2. O=C(Cn1ccnc1)N1CC2CNCC(C2)C1
3. O=C(C1C[C@H]2C=C[C@@H]1CC2)N1CC2CNCC2C1 (some centres unmarked)

OUT:
[1.4, 1320, 236]
